TARGET_OR_SYSTEM: Sterol O-acyltransferase 1 (Rattus norvegicus, UniProt O70536)
Sequence (O70536 whole entry): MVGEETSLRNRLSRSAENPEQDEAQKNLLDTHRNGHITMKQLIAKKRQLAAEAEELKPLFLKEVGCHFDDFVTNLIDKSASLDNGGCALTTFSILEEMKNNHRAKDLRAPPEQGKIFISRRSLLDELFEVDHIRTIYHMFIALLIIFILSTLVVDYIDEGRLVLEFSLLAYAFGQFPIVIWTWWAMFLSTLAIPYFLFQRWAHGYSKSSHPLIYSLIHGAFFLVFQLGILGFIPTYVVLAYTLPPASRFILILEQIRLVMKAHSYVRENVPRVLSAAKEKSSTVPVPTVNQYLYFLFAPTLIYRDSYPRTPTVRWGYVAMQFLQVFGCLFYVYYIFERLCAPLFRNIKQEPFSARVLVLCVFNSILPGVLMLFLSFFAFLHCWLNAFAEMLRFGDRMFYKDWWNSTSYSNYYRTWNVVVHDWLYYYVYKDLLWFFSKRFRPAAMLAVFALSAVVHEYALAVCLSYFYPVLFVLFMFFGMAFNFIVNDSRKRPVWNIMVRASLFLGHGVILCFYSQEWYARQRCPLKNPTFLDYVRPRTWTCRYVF
Collected literature values of IC50 measured for Sterol O-acyltransferase 1 (Rattus norvegicus, UniProt O70536).
Answer in µM, number only, no unit symbol.

Solved entries (count: 4):
# SMILES_REPRESENTATION, IC50, µM
measured = [
    ("CCCCCCNS(=O)(=O)NC(=O)Nc1c(C(C)C)cccc1C(C)C", 8.1),
    ("O=C1c2c(c(=O)n3nc(-c4ccccc4)cc3n2CSc2ccccc2)CN1C1CCCCC1", 22.9),
    ("CCCCCCCC[C@@H](SCCCCCC)C(=O)Nc1c(SC)ccc2ncccc12", 0.75),
    ("Cc1ccc2ncc(NC(=O)Nc3ccc(F)cc3F)c(-c3ccccc3C)c2c1", 0.0217),
]

As a next step, examine the compound that follows.
Lookup: Data request, read-out IC50, for CC(C)c1cccc(C(C)C)c1NC(=O)NS(=O)(=O)N(Cc1ccccc1)Cc1ccccc1
Found: 2.2

----------
Collected literature values of IC50 measured for Sterol O-acyltransferase 1 (Rattus norvegicus).
TARGET_OR_SYSTEM: Sterol O-acyltransferase 1 (Rattus norvegicus)
Sequence (O70536 whole entry): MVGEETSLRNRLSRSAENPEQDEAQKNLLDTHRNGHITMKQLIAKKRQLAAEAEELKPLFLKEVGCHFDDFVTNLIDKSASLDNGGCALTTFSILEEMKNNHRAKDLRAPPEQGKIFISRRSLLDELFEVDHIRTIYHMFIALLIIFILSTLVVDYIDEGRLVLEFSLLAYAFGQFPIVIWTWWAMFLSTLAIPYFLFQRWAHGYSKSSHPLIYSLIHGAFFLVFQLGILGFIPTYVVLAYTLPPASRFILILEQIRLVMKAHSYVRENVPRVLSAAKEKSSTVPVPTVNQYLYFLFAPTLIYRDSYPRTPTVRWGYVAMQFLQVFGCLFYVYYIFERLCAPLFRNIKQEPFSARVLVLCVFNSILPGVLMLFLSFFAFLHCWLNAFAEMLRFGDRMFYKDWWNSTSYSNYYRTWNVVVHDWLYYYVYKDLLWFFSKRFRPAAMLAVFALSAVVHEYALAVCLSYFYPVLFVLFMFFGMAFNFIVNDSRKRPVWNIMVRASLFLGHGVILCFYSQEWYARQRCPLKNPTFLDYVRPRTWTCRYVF
Answer in nM, number only, no unit symbol.

Solved entries (count: 4):
# MOLECULE, TARGET_OR_SYSTEM, MEASURED_PROPERTY, QUANTITATIVE_RESULT
measured = [
    ("CCCCCCCCCCCCc1cc(C(C(=O)Nc2ccc(F)cc2F)c2ccccc2)no1 (configuration not stated)", "Sterol O-acyltransferase 1 (Rattus norvegicus)", "IC50", 100),
    ("c1ccc(-c2nc(SCCC3OCCCO3)[nH]c2-c2ccccc2)cc1", "Sterol O-acyltransferase 1 (Rattus norvegicus)", "IC50", 730),
    ("COc1ccc(C(Cc2ccccc2)NC(=O)C(c2ccccc2)c2ccccc2)cc1 (configuration not stated)", "Sterol O-acyltransferase 1 (Rattus norvegicus)", "IC50", 1500),
    ("CCCCCCCN(Cc1ccccc1CSc1nc(-c2ccccc2)c(-c2ccccc2)[nH]1)C(=O)Nc1ccc(F)cc1F", "Sterol O-acyltransferase 1 (Rattus norvegicus)", "IC50", 3600),
]

Lookup: Data request, read-out IC50, for CC(C)c1cccc(C(C)C)c1NC(=O)NS(=O)(=O)N(Cc1ccccc1)C(C)C
Found: 400

Lookup: Data request, read-out IC50, for C[C@@]1(O)CC(=O)O[C@@H](CSc2nc(-c3ccc(C(F)(F)F)cc3)c(-c3ccc(C(F)(F)F)cc3)[nH]2)C1.C[C@]1(O)CC(=O)O[C@@H](CSc2nc(-c3ccc(C(F)(F)F)cc3)c(-c3ccc(C(F)(F)F)cc3)[nH]2)C1
Found: 1000

Lookup: Data request, read-out IC50, for CCCCCCCC/C=C\CCCCCCCC(=O)NC(Cc1ccccc1)c1ccccc1 (configuration not stated)
Found: 150
